Hey, just so you know, these numbers are from patent US20230233569A1.

Assay target: KRAS G12C (Homo sapiens, UniProt P01116+P62937, G12C)
Sequence (P01116 1-169 isoform P01116-2 G12C limits assumed): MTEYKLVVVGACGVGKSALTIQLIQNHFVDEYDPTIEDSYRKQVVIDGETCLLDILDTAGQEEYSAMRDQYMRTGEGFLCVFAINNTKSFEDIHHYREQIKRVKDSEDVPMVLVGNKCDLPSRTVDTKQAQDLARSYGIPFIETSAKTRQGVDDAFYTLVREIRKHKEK
Sequence (P62937 whole entry): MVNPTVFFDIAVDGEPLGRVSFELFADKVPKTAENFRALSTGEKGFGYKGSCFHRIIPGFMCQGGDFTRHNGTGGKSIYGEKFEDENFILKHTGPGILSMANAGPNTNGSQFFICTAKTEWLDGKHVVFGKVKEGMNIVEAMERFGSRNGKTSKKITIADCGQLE
Assay overview: Ras-Raf disruption / FRET / MOA assay (BRAF RBD)
Format: biochemical
Condition set: Ras-Raf disruption, with Cyclophilin A; read-out: KRAS G12C FRET data IC50
Parameter: IC50

>>> experimental_result("CCn1c(-c2cccnc2[C@H](C)OC)c2c3cc(ccc31)-c1cc(O)cc(c1)C[C@H](NC(=O)[C@H](C(C)C)N1CC[C@@]3(CCN(C[C@@H]4CN4)C3)C1=O)C(=O)N1CCC[C@H](N1)C(=O)OCC(C)(C)C2")
"10 to 100 nM"
>>> experimental_result("CCn1c(-c2cccnc2[C@H](C)OC)c2c3cc(ccc31)-c1cc(O)cc(c1)C[C@H](NC(=O)[C@H](C(C)C)N(C)C(=O)[C@H]1CCCN(C(=O)[C@H]3CN3)C1)C(=O)N1CCC[C@H](N1)C(=O)OCC(C)(C)C2")
"< 10 nM"
>>> experimental_result("CCn1c(-c2cccnc2[C@H](C)OC)c2c3cc(ccc31)-c1cc(O)cc(c1)C[C@H](NC(=O)[C@H](C(C)C)N(C)C(=O)N1CCCN(C(=O)[C@@H]3CN3)CC1)C(=O)N1CCC[C@H](N1)C(=O)OCC(C)(C)C2")
"10 to 100 nM"
>>> experimental_result("CCn1c(-c2cccnc2[C@H](C)OC)c2c3cc(ccc31)-c1cc(O)cc(c1)C[C@H](NC(=O)[C@H](C1CCCC1)N1CC[C@]3(CCN(C(=O)[C@H]4CN4)C3)C1=O)C(=O)N1CCC[C@H](N1)C(=O)OCC(C)(C)C2")
"< 10 nM"

----------
Test system: Capan-1 (K-Ras G12V)
Assay overview: CellTiter-Glo cell viability assay, 5-day treatment
Format: cell-based
Condition set: Homo sapiens, CAPAN-1, 120 h, 5-day treatment; read-out: Capan-1 Cell Viability assay data (K-Ras G12V, IC50)
Parameter: IC50

>>> experimental_result("CCn1c(-c2cccnc2[C@H](C)OC)c2c3cc(ccc31)-c1csc(n1)C[C@H](NC(=O)[C@H](C(C)C)N(C)C(=O)N1CC3(CC(N(C)CCOC)C3)C1)C(=O)N1CCC[C@H](N1)C(=O)OCC(C)(C)C2 (atropisomer, axis not shown) [Example A532]")
"10 to 100 nM"
>>> experimental_result("CCn1c(-c2cccnc2[C@H](C)OC)c2c3cc(ccc31)-c1cc(O)cc(c1)C[C@H](NC(=O)[C@H](C(C)C)N(C)C(=O)C1CNC1)C(=O)N1CCC[C@H](N1)C(=O)OCC(C)(C)C2 [Example A125]")
"1000 to 10000 nM"
>>> experimental_result("CCn1c(-c2cccnc2[C@H](C)OC)c2c3cc(ccc31)-c1csc(n1)C[C@H](NC(=O)[C@H](C(C)C)N(C)C(=O)N1C[C@H]3OCCN(C)[C@H]3C1)C(=O)N1CCC[C@H](N1)C(=O)OCC(C)(C)C2 (atropisomer, axis not shown) [Example A451]")
"10 to 100 nM"
>>> experimental_result("CCn1c(-c2cccnc2[C@H](C)OC)c2c3cc(ccc31)-c1cc(O)cc(c1)C[C@H](NC(=O)[C@H](C(C)C)N(C)C(=O)OC1CC1)C(=O)N1CCC[C@H](N1)C(=O)OCC(C)(C)C2 [Example A174]")
"100 to 1000 nM"
>>> experimental_result("CCn1c(-c2cccnc2[C@H](C)OC)c2c3cc(ccc31)-c1csc(n1)C[C@H](NC(=O)[C@H](C(C)C)N(C)C(=O)N1CCCOCC1)C(=O)N1CCC[C@H](N1)C(=O)OCC(C)(C)C2 (atropisomer, axis not shown) [Example A335]")
"10 to 100 nM"
>>> experimental_result("CCn1c(-c2cc(N3CCN(C)CC3)cnc2[C@H](C)OC)c2c3cc(ccc31)-c1csc(n1)C[C@H](NC(=O)[C@H](C(C)C)N(C)C(=O)N1CC(N(C)C)C1)C(=O)N1CCC[C@H](N1)C(=O)OCC(C)(C)C2 (atropisomer, axis not shown) [Example A477]")
"< 10 nM"
>>> experimental_result("CCn1c(-c2cccnc2[C@H](C)OC)c2c3cc(ccc31)-c1csc(n1)C[C@H](NC(=O)[C@H](C(C)C)N(C)C(=O)N1CCN(C)CC1)C(=O)N1CCC[C@H](N1)C(=O)OCC(C)(C)C2 [Example A570]")
"10 to 100 nM"
>>> experimental_result("CCn1c(-c2cccnc2[C@H](C)OC)c2c3cc(ccc31)-c1csc(n1)C[C@H](NC(=O)[C@H](C(C)C)N(C)C(=O)N1CC(CO)C1)C(=O)N1CCC[C@H](N1)C(=O)OCC(C)(C)C2 (atropisomer, axis not shown) [Example A356]")
"10 to 100 nM"
>>> experimental_result("CCn1c(-c2cccnc2[C@H](C)OC)c2c3cc(ccc31)-c1cc(O)cc(c1)C[C@H](NC(=O)[C@H](C(C)C)N(C)C(=O)[C@H]1CC1(F)F)C(=O)N1CCC[C@H](N1)C(=O)OCC(C)(C)C2 [Example A166]")
"100 to 1000 nM"
>>> experimental_result("C=C[C@@H]1C[C@]1(N)C(=O)N(C)[C@H](C(=O)N[C@H]1Cc2cc(O)cc(c2)-c2ccc3c(c2)c(c(-c2cccnc2[C@H](C)OC)n3CC)CC(C)(C)COC(=O)[C@@H]2CCCN(N2)C1=O)C(C)C [Example A149]")
"1000 to 10000 nM"
>>> experimental_result("CCn1c(-c2cnccc2COC)c2c3cc(ccc31)-c1cc(O)cc(c1)C[C@H](NC(=O)[C@H](C(C)C)N(C)C(=O)[C@H](C)O)C(=O)N1CCC[C@H](N1)C(=O)OCC(C)(C)C2 [Example A93]")
"1000 to 10000 nM"
